Every entry's value here was drawn from ChEMBL document CHEMBL5608113.

The following molecules are shown together with reported viability at 10 µM values.
test system: Colon cancer organoid; assay: Targeting of F14 CAF-induced therapy resistance in O14 CRC organoid-stroma co-culture. Cell viability is reported without Gefitinib.; assay type: functional, Homo sapiens; conditions: Homo sapiens, Concentration 10 uM; read-out: Cell Viability

{"columns": ["molecule", "target system", "viability at 10 µM / %"],
 "data": [
  ["CC1(C)C(N)=Nc2cc(OCCCN3Cc4ccc(OCCc5cn(CC(=O)N6CCC(CCN7CCCC7)CC6)nn5)cc4C3)c(OCC3CC3)cc21", "Colon cancer organoid", 111],
  ["CC(=O)Nc1ncc(CN2CCC[C@H](Cc3cc(C)nc(C)c3)C2)s1 [JNJ-65355394]", "Colon cancer organoid", 106],
  ["CC1=C(C)C(=O)C(C(C)(C)CC(=O)N(CCCCSC[C@H]2O[C@@H](n3cnc4c(N)ncnc43)[C@H](O)[C@@H]2O)Cc2cccc(-c3ccc(Cl)cc3)c2)=C(C)C1=O", "Colon cancer organoid", 89.1],
  ["O=C1CCc2cc(Nc3cc(OC4CCOCC4)c([N+](=O)[O-])cc3Cl)ccc2N1", "Colon cancer organoid", 112],
  ["Cc1ccc(-c2cnc([C@@]3(O)CC[C@H](C(=O)O)C(C)(C)C3)s2)cc1Nc1cccc(C(F)(F)F)n1 [MRL-SYKi-NC]", "Colon cancer organoid", 110],
  ["Nc1ncnc2c1ccn2[C@@H]1O[C@H]([C@H](O)c2ccccc2)[C@@H](O)[C@H]1O", "Colon cancer organoid", 14.9],
  ["CC(=O)C1=C(C)N(c2cccc(C(F)(F)F)c2)C(=O)N[C@H]1c1ccc(C#N)nc1 [BAY-677]", "Colon cancer organoid", 107],
  ["CCC(=N\\O)/C(C)=C/c1ccc(F)c(C)c1 [A-226]", "Colon cancer organoid", 119],
  ["O=C(NCC(=O)N1CCCC1)Nc1ccc2cnccc2c1", "Colon cancer organoid", 83.8],
  ["O=C(O)c1cc(-c2ccc(C3CCNCC3)cc2)c2ccc(-c3ccc(C(F)(F)F)cc3)cc2c1", "Colon cancer organoid", 77],
  ["Cn1cc(CNCC2CCN(c3ncc(C(=O)NO)cn3)CC2)c2ccccc21 [QUISINOSTAT]", "Colon cancer organoid", 0.685],
  ["O=C(NNS(=O)(=O)c1ccccc1)c1cc(-c2ccnnc2)ccc1F [WM-2474]", "Colon cancer organoid", 77.4],
  ["O=C(NCCN1CCOCC1)c1ccc2c(c1)C(=O)c1ccc(Nc3ccc(F)c(NC(=O)c4ccccc4)c3)cc1CC2 [FS-694]", "Colon cancer organoid", 156],
  ["COc1cccc(CNC(=O)c2nc3scc(CN(C)Cc4ccccc4)c3c(=O)[nH]2)c1 [T-26f]", "Colon cancer organoid", 112],
  ["CC(=O)NCC(=O)N1[C@@H]2CC[C@H]1c1ccc(Nc3ncc(C(F)(F)F)c(NC4CCC4)n3)cc12 [PF-03814735]", "Colon cancer organoid", 14.8],
  ["Cc1nccc(COC(=O)N2C[C@@H]3[C@@H](CNC(=O)c4ccc5[nH]nnc5c4)[C@@H]3C2)n1 [BI 3017]", "Colon cancer organoid", 7.82]
]}

* * *

Each entry below lists one item and its recorded viability at 10 µM value.
test system: Colon cancer organoid; assay: Targeting of F14 CAF-induced therapy resistance in O23 CRC organoid-stroma co-culture. Cell viability is reported without Gefitinib.; type: functional, Homo sapiens; conditions: Homo sapiens, Concentration 10 uM; read-out: Cell Viability

{"columns": ["compound", "target system", "viability at 10 µM / %"],
 "data": [
  ["CN1CCN(c2cnc3c(C4CCN(C(=O)c5ccc(OC(F)(F)F)cc5N)CC4)ncnc3c2)CC1", "Colon cancer organoid", 115],
  ["O=C(O)c1ccc(-c2coc3ncc(-c4ccccc4)cc23)cc1Cl", "Colon cancer organoid", 214],
  ["CC(C)Oc1ccc(-c2c[nH]cc2CN(C)CCO)cc1", "Colon cancer organoid", 129],
  ["CN(C)c1ncnc(-c2ccc3nc(Nc4cc(CN5CCN(C(=O)CC(F)(F)F)CC5)ccn4)[nH]c3c2)c1Cl", "Colon cancer organoid", 160],
  ["Cn1cncc1[C@@](O)(COc1ccc(C#N)cc1-c1ccc(OC(F)(F)F)cc1)c1ccc(C#N)cc1", "Colon cancer organoid", 131],
  ["Cc1c(N2CCNCC2)nc2ccc(Br)cc2c1C(=O)NC[C@H](CCC(=O)O)c1ccccc1Cl", "Colon cancer organoid", 60.5],
  ["O=C(NCC(=O)N1CCCC1)Nc1ccc2cnccc2c1", "Colon cancer organoid", 179],
  ["Cn1c(C2(NC(=O)c3ccc4c(C5CCCC5)c(-c5ncc(Br)cn5)n(C)c4c3)CCC2)nc2ccc(/C=C/C(=O)O)cc21", "Colon cancer organoid", 112],
  ["Cc1sc2c(c1C)C(c1ccc(Cl)cc1)=N[C@H](CC(=O)OC(C)(C)C)c1nnc(C)n1-2", "Colon cancer organoid", 130],
  ["CC(=O)c1c(NS(C)(=O)=O)c2cc(-c3ccc(Cl)cc3)c(-c3ccc(Cl)cc3Cl)nc2n(C)c1=O", "Colon cancer organoid", 92.4],
  ["FC(F)(F)c1ccc2c(c1)nc(-c1cccnc1)n2C1CC1 [MSD-CYP11B2-Negative-control]", "Colon cancer organoid", 150],
  ["CC(=O)N1CCC(c2ccc(C(=O)NC(=N)N)cc2C(F)(F)F)CC1", "Colon cancer organoid", 109],
  ["O=C(NCc1ncc(C(F)(F)F)cc1Cl)c1ccc2c(c1)C1(CCS(=O)(=O)CC1)[C@@H](C1CC1)N2S(=O)(=O)c1ccc(F)cc1", "Colon cancer organoid", 138],
  ["N#CN1CC[C@H](C(=O)Nc2nc3c(s2)CN(C(=O)CN=[N+]=[N-])CC3)C1", "Colon cancer organoid", 108],
  ["COCCc1ccc(-c2c(C)nc3c(N4CCOCC4)ccnn23)cn1", "Colon cancer organoid", 143],
  ["C[C@H](c1ccc(F)cc1)N(Cc1ccc(Cl)c(C(=O)O)c1)C(=O)c1cnc2ccccc2c1", "Colon cancer organoid", 81.5],
  ["CC(=O)Nc1cccc(-n2c(=O)n(C3CC3)c(=O)c3c(Nc4ccc(I)cc4F)n(C)c(=O)c(C)c32)c1", "Colon cancer organoid", 1.69],
  ["C[C@@H](c1cccc(C#N)c1)n1cc(Cl)cc(C(N)=O)c1=N", "Colon cancer organoid", 126],
  ["C[C@@H](c1cccc(CN)c1)n1cc(Cl)cc(C(N)=O)c1=N", "Colon cancer organoid", 172],
  ["CNC(=O)c1cc(C(=O)NC2CC2)cn(Cc2ccccc2)c1=O", "Colon cancer organoid", 111],
  ["Cc1nc(C2CCN(C(=O)c3ccc(OC(F)(F)F)cc3N)CC2)c2ncc(N3CCN(C)CC3)cc2n1", "Colon cancer organoid", 119],
  ["CO[C@H]1CC[C@H](CNc2ccc(S(=O)(=O)NC(=O)c3ccc(N4CCN(CC5=C(c6ccc(Cl)cc6)CC(C)(C)CC5)CC4)cc3Oc3cnc4[nH]ccc4c3)cc2[N+](=O)[O-])CC1", "Colon cancer organoid", 83.3],
  ["Cc1nc(N2CC[C@H](O)C2)ncc1-c1cc(C(F)(F)F)cc2[nH]ncc12", "Colon cancer organoid", 123],
  ["Cc1cc(NC(=O)c2cccc(S(F)(F)(F)(F)F)c2)cc(-n2ccn3nc(-c4cccnc4)cc23)c1", "Colon cancer organoid", 159],
  ["CCCOc1ccn2c(C(C)=O)cc(-c3cccc(OC)c3)c2c1", "Colon cancer organoid", 112],
  ["Cn1cc(CCn2cnc(-c3cnn(C)c3)c2-c2ccc(C#N)cc2)cn1", "Colon cancer organoid", 141],
  ["Cn1cc(Cl)c2c(Oc3c(F)cc(Nc4cc(Cl)nc(N)n4)cc3F)ccnc21", "Colon cancer organoid", 107],
  ["COCCN1CCC(c2cc(CN(C)C(=O)c3cccc(Oc4ccccc4)c3)ccn2)CC1", "Colon cancer organoid", 46.6],
  ["Cc1cc(C)cc([C@@H]2c3cc(C)ccc3NC(=O)CN2C(=O)c2ccc(Br)s2)c1", "Colon cancer organoid", 110],
  ["CC(C)[C@H](C(=O)Nc1ccc(C(=O)NO)cc1)c1ccccc1", "Colon cancer organoid", 210],
  ["CC1=CC(C)=[N+]2C1=C(CCCCc1cn(CC(=O)N3CCc4nc(NC(=O)[C@H]5CCN(C#N)C5)sc4C3)nn1)c1c(C)cc(C)n1[B-]2(F)F", "Colon cancer organoid", 101],
  ["CN(C(=O)c1ccccc1)c1cc(N(C)c2ccc3c(c2)CCc2ccc(C(=O)NCCN4CCOCC4)cc2C3=O)ccc1F", "Colon cancer organoid", 141],
  ["CC(=O)c1cc(-c2cc(C(=O)NC3CC3)ccc2C)c2ncccn12", "Colon cancer organoid", 108]
]}

* * *

system: Colon cancer organoid; assay: Targeting of F14 CAF-induced therapy resistance in O14 CRC organoid-stroma co-culture. Cell viability is reported without Gefitinib.; assay type: functional, Homo sapiens; conditions: Homo sapiens, Concentration 10 uM; read-out: Cell Viability
Measured viability at 10 µM by item
experimental readout: viability at 10 µM (%)

{"columns": ["compound", "readout units", "endpoint result"],
 "data": [
  ["CCC(=O)N1CCOc2c(cc(-c3ccc(OC)c(OC)c3)cc2OCC2CCCN(C)C2)C1 (stereo not drawn)", "%", 102],
  ["C=CC(=O)Nc1ccc2[nH]c(=O)n(C3CCN(Cc4ccc(-c5nc6cc[nH]c(=O)c6cc5-c5ccccc5)cc4)CC3)c2c1", "%", 28.5],
  ["Cc1c(N2CCCC2)nc2ccc(Br)cc2c1C(=O)NC[C@H](CCC(=O)O)c1ccccc1Cl", "%", 138],
  ["C[C@@]1(Cc2ccc(C#N)cc2)C(=O)N(c2cc(Cl)cc(Cl)c2)c2ncc(C(=O)NC3(c4nc(C5CCC5)no4)CC3)n21", "%", 80.5],
  ["Cc1nc(N2CC[C@H](O)C2)ncc1-c1cc(C(F)(F)F)cc2[nH]ncc12", "%", 91],
  ["CN([C@@H]1CCc2c(CC(=O)O)c3cc(S(C)(=O)=O)ccc3n2C1)S(=O)(=O)c1ccc(F)cc1 [CRTH2-negative-control]", "%", 98.2],
  ["c1ccc([C@@H]2C[C@H]2NC2CCNCC2)cc1", "%", 114],
  ["CNC(=O)c1ccc(Nc2ncc(C(F)(F)F)c(NCc3nccnc3N(C)S(C)(=O)=O)n2)cc1", "%", 76.8]
]}
